Data origin: PubChem BioAssay (NCATS)

Test: Quantitative High-Throughput drug screen in 47 multiple myeloma cell lines against the NCATS MIPE library collection: MOLP8_DSMZ cell viability assay (AID 1918977); also: nearly all actives have a fitted effect of over 45% in size
Details: MOLP8 myeloma viability, CellTiter-Glo ATP luminescence, 48 h; series mostly up to 45.8 µM
Records with an inconclusive call do not appear. Calls of active or inactive are those of the source. Calls follow the shape of the dose curve; as a rule, active = well fitted cell-killing curve with a large enough effect; inconclusive = small, poorly fitted or top-dose-only effect, or effect the other way; inactive = no such curve, though single readings can be large or run the other way. Non-standard residues stand in square brackets, D forms with d. Residues, ends and D or L forms follow the SMILES beside them. *: point of attachment. Nva = CCC[C@H](N)C(=O)O; Cbz = O=C(OCc1ccccc1)*
Possible outcomes: Y (active), N (inactive)

molecule	label.class
Cn1cc(C2=C(c3c4n(c5ccccc35)CCC(CN)C4)C(=O)NC2=O)c2ccccc21 (stereo unspecified)	Y
CC(Oc1ccc(O)cc1)(P(=O)(O)O)P(=O)(O)O	N
COc1cc(CCc2cc(NC(=O)c3ccc(N4C[C@@H](C)N[C@@H](C)C4)cc3)n[nH]2)cc(OC)c1	Y
C=C1C[C@@]2(O)O[C@@]3(C[C@H]2C(C)C)[C@H](C)CC[C@H]13	N
COc1cccc2c1C(=O)c1c(O)c3c(c(O)c1C2=O)C[C@@](O)(C(C)=O)C[C@H]3O[C@H]1C[C@H](N)[C@H](O)[C@H](C)O1	Y
CC(=O)O[C@H]1C[C@@H]2CC[C@H]3[C@H]4C[C@H]([N+]5(C)CCCCC5)[C@@H](OC(C)=O)[C@@]4(C)CC[C@@H]3[C@@]2(C)C[C@H]1N1CCCCC1	N
CN(CC(=O)N(Cc1ccc(C2CCCCC2)cc1)c1ccc(C(=O)O)c(O)c1)S(=O)(=O)c1c(F)c(F)c(F)c(F)c1F	Y
CCOC(=O)C1=C(C)NC(=S)NC1c1cccc(O)c1 (stereo unspecified)	Y
C[C@H]1O[C@H](O[C@H]2[C@H](O)[C@@H](O)[C@@H](O[C@H]3[C@H](O)[C@@H](O)C(O)O[C@H]3CO)O[C@H]2CO)[C@H](O)[C@@H](O)[C@H]1N[C@H]1C=C(CO)[C@@H](O)[C@H](O)[C@@H]1O (stereo partly specified)	N
COC(=O)[C@@H]1[C@H]2C[C@@H]3c4[nH]c5ccccc5c4CCN3C[C@@H]2CC[C@@H]1O	N
C=C(C)[C@@H]1CC[C@]2(C)CC[C@]3(C)[C@H](CC[C@@H]4[C@@]5(C)CC[C@H](O)C(C)(C)[C@H]5CC[C@]43C)[C@@H]12	N
O=C(C[C@@H]1CC=CCCC(=O)O[C@H](c2ccccc2)CNC1=O)NCc1ccc(Cl)cc1	N
O=C(O)CCCCCC(=O)NN=C1CCCC1	N
CCCCCCCCCCCCCCCC(=O)OC[C@@H](NC(=O)C(Cl)Cl)[C@H](O)c1ccc([N+](=O)[O-])cc1	N
CC(C(C)N1CC(=O)NC(=O)C1)N1CC(=O)NC(=O)C1 (stereo unspecified)	Y
CON=C(C(=O)N[C@@H]1C(=O)N2C(C(=O)O)=C(Cn3ccc(=N)n3CCO)CS[C@H]12)c1csc(N)n1	N
CCC[C@@H](C=O)NC(=O)[C@H](CC(C)C)NC(=O)[C@H](CC(C)C)NC(=O)OCc1ccccc1 (Cbz-Leu-Leu-[Nva]-aldehyde)	Y
c1cncc(CN2CCC(n3ncc4c(N5CCOCC5)nc(-c5ccc6[nH]ccc6c5)nc43)CC2)c1	Y
C[C@@H](Oc1ccc2[nH]nc(C=Cc3cnn(CCO)c3)c2c1)c1c(Cl)cncc1Cl	Y
Cn1cc(C=CC(=O)c2cccc(F)c2)cc1C=CC(=O)NO	Y
CC[C@]12C=CCN3CC[C@@]4(c5cc([C@@]6(C(=O)OC)C[C@H]7C[C@@H](C(C)(F)F)CN(Cc8c6[nH]c6ccccc86)C7)c(OC)cc5N(C)[C@H]4[C@@](O)(C(=O)OC)[C@H]1OC(C)=O)[C@@H]32	Y

====

Test: qHTS of pediatric cancer cell lines to identify multiple opportunities for drug repurposing: Primary screen for A673 cells (AID 1347092); also: potency is read from the fitted curve at half-maximal effect; nearly all actives have a fitted effect of over 45% in size
Settings: A673 Ewing sarcoma viability, CellTiter-Glo ATP luminescence, 48 h; series mostly up to 46 µM
Results filed as inconclusive are left out. Active and inactive are the calls of the source. Calls follow the shape of the dose curve; as a rule, active = well fitted cell-killing curve with a large enough effect; inconclusive = small, poorly fitted or top-dose-only effect; inactive = no such curve, though single readings can be large or run the other way.
measured.attribute: Potency

> print(dat)
                              record.smiles  measured.attribute  observed.measurement
1  O=C(Nc1cccc(Nc2ncc(Br)c(NCCc3cnc[nH]3)n2)c1)N1CCCC1             Potency      11.8 µM (active)
2   O=c1c(O)c(-c2ccc(O)c(O)c2)oc2cc(O)ccc12             Potency      29.6 µM (active)
3  C=CC(=O)Nc1ccc2ncnc(Nc3ccc(OCc4cccc(F)c4)c(Cl)c3)c2c1             Potency     0.001 µM (active)

====

Assay: Quantitative High-Throughput drug screen in 47 multiple myeloma cell lines against the NCATS MIPE library collection: RPMI8226_ATCC cell viability assay (AID 1919871); also: nearly all actives have a fitted effect of over 30% in size; also: potency is read from the fitted curve at half-maximal effect
Conditions: RPMI8226 myeloma viability, CellTiter-Glo ATP luminescence, 48 h; series mostly up to 45.8 µM
Records with an inconclusive call do not appear. Calls of active or inactive are those of the source. Calls follow the shape of the dose curve; as a rule, active = well fitted cell-killing curve with a large enough effect; inconclusive = small, poorly fitted or top-dose-only effect, or effect the other way; inactive = no such curve, though single readings can be large or run the other way. Non-standard residues stand in square brackets, D forms with d. Residues, ends and D or L forms follow the SMILES beside them. *: point of attachment. Nva = CCC[C@H](N)C(=O)O; Cbz = O=C(OCc1ccccc1)*
measured.attribute: Potency

> print(dat)
                                    molecule  measured.attribute  observed.measurement
 1  FC(F)(F)c1ccc(Nc2nc3ccc(Oc4ccnc(-c5ncc(C(F)(F)F)[nH]5)c4)cc3[nH]2)cc1             Potency     26400 nM (active)
 2          Cn1cc(C[C@@H](N)C(=O)O)c2ccccc21             Potency              inactive
 3  Oc1cc(-c2nc(-c3ccccc3)[nH]c2-c2ccncc2)ccc1Cl             Potency     16600 nM (active)
 4  O=C(C=CC#Cc1cccc(NS(=O)(=O)c2ccccc2)c1)NO             Potency      2640 nM (active)
 5  CCOC(=O)C=C[C@H](C[C@@H]1CCNC1=O)NC(=O)[C@@H](CC(=O)[C@@H](NC(=O)c1cc(C)on1)C(C)C)Cc1ccc(F)cc1             Potency              inactive
 6  CCC[C@@H](C=O)NC(=O)[C@H](CC(C)C)NC(=O)[C@H](CC(C)C)NC(=O)OCc1ccccc1 (Cbz-Leu-Leu-[Nva]-aldehyde)             Potency      1320 nM (active)
 7  O=C(Nc1nnc(-c2ccco2)o1)c1cc(-c2ccccc2)nc2ccccc12             Potency     13200 nM (active)
 8  C#CCC(Cc1cnc2nc(N)nc(N)c2n1)c1ccc(C(=O)N[C@@H](CCC(=O)O)C(=O)O)cc1 (stereo not given in full)             Potency              inactive
 9  CCNC(=O)c1cc2c(-c3cc(OCCN4CCCC4)c(Cl)cc3Cl)nc(N)nc2s1             Potency      1180 nM (active)
10  CC(C)N1[N]C(=C2C=c3cc(O)ccc3=N2)c2c(N)ncnc21             Potency      41.8 nM (active)

====

Test: Quantitative High-Throughput drug screen in 47 multiple myeloma cell lines against the NCATS MIPE library collection: KMS20_JCRB cell viability assay (AID 1918973); also: nearly all actives have a fitted effect of over 45% in size
Conditions: CellTiter-Glo ATP, 48 h; series mostly up to 45.8 µM
Inconclusive results are not listed. Calls of active or inactive are those of the source. Calls come from the whole dose curve; as a rule, active = well fitted cell-killing curve with a large enough effect; inconclusive = small, poorly fitted or top-dose-only effect, or effect the other way; inactive = no such curve, though single readings can be large or run the other way.
Possible outcomes: active, inactive

> print(dat)
                                   molecule  label.class
1  Oc1cc(-c2nc(-c3ccccc3)[nH]c2-c2ccncc2)ccc1Cl       active
2  C#CCC(Cc1cnc2nc(N)nc(N)c2n1)c1ccc(C(=O)N[C@@H](CCC(=O)O)C(=O)O)cc1 (some centres undefined)     inactive
3               O=C(CCCCCCC(=O)Nc1cccnc1)NO       active
4  C[C@]12CCC(=O)C=C1[C@@H]1CC1[C@H]1[C@H]3[C@@H]4C[C@H]4[C@@]4(CCC(=O)O4)[C@@]3(C)CC[C@H]12 (some centres undefined)     inactive

====

Examples of molecules with documented Potency follow.
Assay: Quantitative High-Throughput drug screen in 47 multiple myeloma cell lines against the NCATS MIPE library collection: L363_DSMZ cell viability assay (AID 1918984); also: potency is read from the fitted curve at half-maximal effect; nearly all actives have a fitted effect of over 40% in size
Settings: L363 myeloma viability, CellTiter-Glo ATP luminescence, 48 h; series mostly up to 45.8 µM
Inconclusive results are not listed. The source made the active and inactive calls. The call rests on the fitted dose curve; in most records, active means well fitted cell-killing curve with a large enough effect; inconclusive means small, poorly fitted or top-dose-only effect, or effect the other way; inactive means no such curve, though single readings can be large or run the other way.
measured.attribute: Potency

> print(dat)
                                   molecule  measured.attribute  observed.measurement
1  COc1cc(C)c(Sc2cnc(NC(=O)c3ccc(CNC(C)C(C)(C)C)cc3)s2)cc1C(=O)N1CCN(C(C)=O)CC1 (stereo not drawn)             Potency      2.96 µM (active)
2            CCCCCCCCc1ccc(CCC(N)(CO)CO)cc1             Potency      4.18 µM (active)
